# relative viability values compiled below
# Tested on: A-427
# testSummary: relative viability (nuclei count vs DMSO), 5 days (fraction); higher = more cells survive
# setupConditions: first compound 0.01 µM
recordedMetric: relative viability

>  <molecule>
O=c1cc(N2CCOCC2)oc2c(-c3cccc4c3sc3ccccc34)cccc12 + NC(=O)Nc1cc(-c2cccc(F)c2)sc1C(=O)N[C@H]1CCCNC1 [AZD7762] (partner 0.2 µM)

>  <numericValue>
0.731

$$$$
>  <molecule>
O=c1cc(N2CCOCC2)oc2c(-c3cccc4c3sc3ccccc34)cccc12 + CC1(C)CCC(c2ccc(Cl)cc2)=C(CN2CCN(c3ccc(C(=O)NS(=O)(=O)c4ccc(N[C@H](CCN5CCOCC5)CSc5ccccc5)c(S(=O)(=O)C(F)(F)F)c4)cc3)CC2)C1 [Navitoclax] (partner 0.5 µM)

>  <numericValue>
0.937

$$$$
>  <molecule>
CCN(CC)CCCCNc1ncc2cc(-c3cc(OC)cc(OC)c3)c(NC(=O)NC(C)(C)C)nc2n1 + CC1(C)CCC(c2ccc(Cl)cc2)=C(CN2CCN(c3ccc(C(=O)NS(=O)(=O)c4ccc(N[C@H](CCN5CCOCC5)CSc5ccccc5)c(S(=O)(=O)C(F)(F)F)c4)cc3)CC2)C1 [Navitoclax] (partner 0.5 µM)

>  <numericValue>
0.991

$$$$
>  <molecule>
O=c1cc(N2CCOCC2)oc2c(-c3cccc4c3sc3ccccc34)cccc12 + Cc1nc(Nc2ncc(C(=O)Nc3c(C)cccc3Cl)s2)cc(N2CCN(CCO)CC2)n1 [Dasatinib] (partner 0.075 µM)

>  <numericValue>
0.728

$$$$

----------
# Tested on: NCI-H1666
# testSummary: relative viability (nuclei count vs DMSO), 5 days (fraction); higher = more cells survive
# setupConditions: first compound 2.53 µM
Please respond with True when measured relative viability is strictly beneath 0.7, and with False in all other cases.

>  <molecule>
O=c1cc(-c2cccc3c2Sc2ccccc2S3)oc(N2CCOCC2)c1 + CC1(C)CCC(c2ccc(Cl)cc2)=C(CN2CCN(c3ccc(C(=O)NS(=O)(=O)c4ccc(N[C@H](CCN5CCOCC5)CSc5ccccc5)c(S(=O)(=O)C(F)(F)F)c4)cc3)CC2)C1 [Navitoclax] (partner 0.5 µM)

>  <discreteLabel>
False

$$$$
>  <molecule>
COc1nc(C)cnc1NS(=O)(=O)c1cccnc1-c1ccc(-c2nnco2)cc1 [Zibotentan] + N=C(N)NC(=N)NCCc1ccccc1 [Phenformin] (partner 250 µM)

>  <discreteLabel>
True

$$$$
>  <molecule>
O=c1cc(-c2cccc3c2Sc2ccccc2S3)oc(N2CCOCC2)c1 + O=C(CCCCCCC(=O)Nc1ccccc1)NO [Vorinostat] (partner 1 µM)

>  <discreteLabel>
False

$$$$
>  <molecule>
O=c1cc(-c2cccc3c2Sc2ccccc2S3)oc(N2CCOCC2)c1 + Nc1ncn([C@H]2C[C@H](O)[C@@H](CO)O2)c(=O)n1 [Decitabine] (partner 2 µM)

>  <discreteLabel>
True

$$$$

----------
# System: NCI-H1975
# testSummary: relative viability (nuclei count vs DMSO), 5 days (fraction); higher = more cells survive
# setupConditions: first compound 0.03162 µM
recordedMetric: relative viability

>  <compound>
CCN(CC)CCCCNc1ncc2cc(-c3cc(OC)cc(OC)c3)c(NC(=O)NC(C)(C)C)nc2n1 + O=C(CCCCCCC(=O)Nc1ccccc1)NO [Vorinostat] (partner 1 µM)

>  <numericValue>
0.756

$$$$
>  <compound>
O=c1cc(N2CCOCC2)oc2c(-c3cccc4c3sc3ccccc34)cccc12 + O=C(c1cc(Cc2n[nH]c(=O)c3ccccc23)ccc1F)N1CCN(C(=O)C2CC2)CC1 [Olaparib] (partner 8 µM)

>  <numericValue>
0.785

$$$$
>  <compound>
CCN(CC)CCCCNc1ncc2cc(-c3cc(OC)cc(OC)c3)c(NC(=O)NC(C)(C)C)nc2n1 + COc1cccc2cc(-c3nc([C@H]4CC[C@H](C(=O)O)CC4)n4ncnc(N)c34)[nH]c12 [OSI-027] (partner 0.5 µM)

>  <numericValue>
0.822

$$$$
>  <compound>
O=c1cc(N2CCOCC2)oc2c(-c3cccc4c3sc3ccccc34)cccc12 + C[C@@H](Oc1cc(-c2cnn(C3CCNCC3)c2)cnc1N)c1c(Cl)ccc(F)c1Cl [Crizotinib] (partner 1 µM)

>  <numericValue>
0.998

$$$$

Numbers sourced from the supplement of paper PMC10307832.
